Target: recombinant mouse prion protein immobilised for SPR (mPrP) (Mus musculus, UniProt P04925)
Sequence (P04925 23-230): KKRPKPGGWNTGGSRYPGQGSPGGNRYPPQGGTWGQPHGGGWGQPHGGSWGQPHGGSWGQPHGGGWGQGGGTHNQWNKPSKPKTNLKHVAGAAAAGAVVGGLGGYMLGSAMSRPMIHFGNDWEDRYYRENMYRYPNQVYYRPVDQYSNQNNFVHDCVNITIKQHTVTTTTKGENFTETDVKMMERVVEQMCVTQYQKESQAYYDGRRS
Assay: SPR
Conditions: both partners purified
Some binders, each annotated with its measured pKd.
pKd here: minus log base 10 of the concentration, concentration in moles per litre.

Recorded pKd, per entry:
{"binder": "pomolog hcD55A (POM1 scFv, heavy chain D55A) (scFv, V domains shown) VH: QVQLQQSGTELVMPGASVKMSCKASGYTFTDYWMHWVKQRPGQGLEWIGSIDPSASYTSHNEKFKGKATLTVDESSSTAYMQLSSLTSEDSAVYFCSRSGYGYYAMEYWGQGTSVTVSS VL: DIVLTQSPAILSVSPGERVSFSCRASQNIGTSIHWYQQRTNESPRLIIKYASESISGIPSRFSGSGSGTDFTLSINSVESEDIADYYCQQSNTWPYTFGGGTKLELK", "pKd": 6.43}
{"binder": "pomolog lcS32A (POM1 scFv, light chain S32A) (scFv, V domains shown) VH: QVQLQQSGTELVMPGASVKMSCKASGYTFTDYWMHWVKQRPGQGLEWIGSIDPSDSYTSHNEKFKGKATLTVDESSSTAYMQLSSLTSEDSAVYFCSRSGYGYYAMEYWGQGTSVTVSS VL: DIVLTQSPAILSVSPGERVSFSCRASQNIGTAIHWYQQRTNESPRLIIKYASESISGIPSRFSGSGSGTDFTLSINSVESEDIADYYCQQSNTWPYTFGGGTKLELK", "pKd": 8.00}

Q: Using the record for pomolog lcW94A (POM1 scFv, light chain W94A) (scFv, V domains shown) VH: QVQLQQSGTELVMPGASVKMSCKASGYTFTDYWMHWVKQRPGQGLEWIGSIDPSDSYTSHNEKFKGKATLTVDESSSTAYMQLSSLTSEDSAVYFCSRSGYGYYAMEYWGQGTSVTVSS VL: DIVLTQSPAILSVSPGERVSFSCRASQNIGTSIHWYQQRTNESPRLIIKYASESISGIPSRFSGSGSGTDFTLSINSVESEDIADYYCQQSNTAPYTFGGGTKLELK , report its pKd.
Result: 6.70
